molecular target: T1, rat Y4 receptor (rat, UniProt Q63447 1-375); test: 125I-PYY displacement, COS-7 membranes
T1 construct: whole, on cells; also called rY4
T1 sequence (Q63447 whole entry): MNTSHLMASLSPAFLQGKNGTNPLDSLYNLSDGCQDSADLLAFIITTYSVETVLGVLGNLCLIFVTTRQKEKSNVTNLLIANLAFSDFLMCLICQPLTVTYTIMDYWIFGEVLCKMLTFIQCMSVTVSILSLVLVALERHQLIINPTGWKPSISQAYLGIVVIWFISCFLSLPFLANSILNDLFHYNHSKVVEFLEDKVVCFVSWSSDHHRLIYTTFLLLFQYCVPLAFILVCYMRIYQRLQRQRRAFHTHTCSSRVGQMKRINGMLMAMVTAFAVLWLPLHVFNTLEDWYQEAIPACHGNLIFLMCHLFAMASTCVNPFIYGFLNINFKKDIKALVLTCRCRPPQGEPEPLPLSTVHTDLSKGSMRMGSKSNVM
measured attribute: pKi
Numbers only, as −log10 of the molar value.

Field: example entries. Status: answers known.
| binder | pKi |
| --- | --- |
| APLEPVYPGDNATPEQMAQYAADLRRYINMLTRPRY (peptide, UniProt P01298 30-65, looked up, mature; also called PP, human; human pancreatic polypeptide) [human PP] | 10.40 |
| DLARYYSALRHYINLITRQRY (peptide, UniProt P01304 25-45, looked up, range 16-36; Range counted on the mature peptide) [porcine NPY16-36] | 6.70 |

Now examine the next entry.
Would you mind telling me what pKi value was observed for LTRPRY (peptide, UniProt P01298 60-65, looked up, range 60-65; Range counted on the mature peptide) [human PP31-36] ?
7.59

Each recorded value in this set is attributed to patent US6713265.
